Measured values drawn from the supplement of paper PMC9135407 for this set.

- Test system: primary human hepatic stellate cells (donor 1)
- EXPERIMENT: scaled lipid accumulation score (0 = DMSO-like, 1 = nortriptyline-like); higher = stronger HSC inactivation (lipid re-accumulation), active = hit call of the paper
- APPLIED CONDITIONS: library stock concentration: 400 uM; 48 h
Among all 5,800 compounds or so, about 620 (11%) showed activity.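 The calls were made as follows: active = score above a cut-off or among the top three wells of a plate; in these data no inactive exceeds 0.85.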 What follows is part of a selection rich in actives, with near analogues and random picks from the rest.
Can you answer with just one of these options? 1 (yes) = active, 0 (no) = inactive

COMPOUND	ANSWER LABEL
CCN(CC)CCNC(=O)c1c(C)[nH]c(/C=C2\C(=O)Nc3ccc(F)cc32)c1C [Sunitinib malate]	0 (no)

Now let's try a different one.
Lookup: Each compound tested received a call. Report the one for "Cc1ccc(C(=O)Nc2cccc(C(F)(F)F)c2)cc1-c1ccc2nc(NCCN3CCOCC3)ncc2c1" .
Found: 0 (no)

###

- Test system: primary human hepatic stellate cells (donor 1)
- EXPERIMENT: scaled lipid accumulation score (0 = DMSO-like, 1 = nortriptyline-like); higher = stronger HSC inactivation (lipid re-accumulation), active = hit call of the paper
- APPLIED CONDITIONS: library stock concentration: 10 mM; 48 h
In all, about 5,800 compounds went through this assay and about 620 (11%) showed activity.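 How the source made its calls: active = score above a cut-off or among the top three wells of a plate; in these data no inactive exceeds 0.85.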 What follows is part of a selection rich in actives, with near analogues and random picks from the rest.
Hi there, use one of these labels in your reply, thanks! class 1 for active, class 0 for inactive

Lookup: What classification did "Cc1[nH]c(/C=C2/C(=O)Nc3ccc(S(=O)(=O)N(C)c4cccc(Cl)c4)cc32)c(C)c1C(=O)N1CCN(C)CC1" end up with in this test?
Found: class 1

Lookup: Tell me the recorded outcome of this test for "Cc1cc(C)c(Nc2ccnc(Nc3ccc(C#N)cc3)n2)c(C)c1" .
Found: class 1

Lookup: Look up the recorded call for "Cc1cc(/C=C/C#N)cc(C)c1Nc1ccnc(Nc2ccc(C#N)cc2)n1" in this test.
Found: class 0

Lookup: Record lookup: outcome of this test for "O=C1Nc2ccc(Cl)cc2/C1=C/c1cc(Cl)c(O)c(Cl)c1" ?
Found: class 0

###

- System: primary human hepatic stellate cells (donor 1)
- EXPERIMENT: scaled lipid accumulation score (0 = DMSO-like, 1 = nortriptyline-like); higher = stronger HSC inactivation (lipid re-accumulation), active = hit call of the paper
- APPLIED CONDITIONS: library stock concentration: 10 mM; 48 h
Where a name gives a salt, the structure may show the parent alone. Out of some 5,800 compounds screened, about 620 (11%) showed activity.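 The calls were made as follows: active = score above a cut-off or among the top three wells of a plate; in these data no inactive exceeds 0.85.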 For the sample, actives were picked, then their nearest neighbours and some compounds at random.
// allowed return values: 1.0 = active, 0.0 = inactive

COMPOUND	TARGET	ANSWER LABEL
COc1ccc(C2=NC(c3ccc(Cl)cc3)C(c3ccc(Cl)cc3)N2C(=O)N2CCNC(=O)C2)c(OC(C)C)c1 (stereo not given)	primary human hepatic stellate cells (donor 1)	0.0
CC1/C=C/C=C/C=C/C=C/C=C/C=C/C=C/C(OC2O[C@H](C)[C@@H](O)[C@H](N)[C@@H]2O)CC(O)C(C(=O)O)C(O)CC(=O)CC(O)CC(O)CC(O)CC(=O)CCCC(=O)CC(=O)OC1C(C)CC(C)C(O)CC(=O)c1ccc(N)cc1 (stereo not given in full)	primary human hepatic stellate cells (donor 1)	0.0
CC[C@@]1(O)C(=O)OCc2c1cc1n(c2=O)Cc2cc3c(CN(C)C)c(O)ccc3nc2-1 [Topotecan hydrochloride]	primary human hepatic stellate cells (donor 1)	0.0

Lookup: What is the recorded call for this compound in the test? OC[C@H]1O[C@@H](n2cnc3c(N[C@H]4CCC[C@@H]4O)ncnc32)[C@@H](O)C1O (stereo partly drawn) [Adenosine, N-(2-hydroxycyclopentyl)-, (1S-trans)- [CAS]]
Found: 0.0

Lookup: Could you please tell me the result logged for COc1ccccc1N1CCN(CCCNc2cc(=O)n(C)c(=O)n2C)CC1 [Urapidil] in this assay?
Found: 0.0

Lookup: For "COc1ccccc1N1CCN(CCCNc2c(C)c(=O)n(C)c(=O)n2C)CC1" , which call appears in the assay record?
Found: 0.0

Lookup: Please share the test call associated with "CNc1nccc(-c2cccnc2Oc2cc(C(=O)Nc3cccc(C(F)(F)F)c3)ccc2C)n1" .
Found: 1.0

Lookup: How was CCC(C)C1OC2(CCC1C)CC1CC(CC=C(C)C(OC3CC(OC)C(OC4CC(OC)C(O)C(C)O4)C(C)O3)C(C)C=CC=C3COC4C(O)C(C)=CC(C(=O)O1)C34O)O2 (stereo not given) classified in this test?
Found: 0.0

Lookup: Answer briefly: the call reported for Cc1cn(-c2cc(NC(=O)c3ccc(C)c(Nc4nccc(-c5cccnc5)n4)c3)cc(C(F)(F)F)c2)cn1 [Nilotinib (AMN-107)] in this assay.
Found: 0.0

Lookup: Status in this test for COc1ccccc1N1CCN(CCCNc2cc(=O)n(C)c(=O)n2C)CC1 [Urapidil HCl] ?
Found: 0.0

Lookup: How was Cc1cccc(C(=O)NCN2CCN(c3ccccc3C#N)CC2)c1 [PD 168,077 maleate] classified in this test?
Found: 0.0

Lookup: Hello, I am checking results. What call was entered for OCC1OC(n2cnc3c(NC4CCCCC4)ncnc32)C(O)C1O (stereo not given) ?
Found: 0.0

Lookup: Could you check what this test reported for "COc1cccc(C(=O)NCCN2CCN(c3ccc(Cl)cc3)CC2)c1" ?
Found: 0.0
